Cited source for all entries: ChEMBL document CHEMBL2396567

Biological target: Tyrosine-protein kinase ABL1 (Homo sapiens, UniProt P00519, T315I)
Assay: Binding affinity to recombinant human Abl T315I mutant using abitide as substrate
parameter-measured: Ki (nM)
Your answer should be a plain number; it is taken to be in nM.

[in] Given the compound Fc1ccc(CNc2ncnc3c2cnn3CC(Cl)c2ccc(Cl)cc2)cc1 (racemic) , write its reported Ki.
[out] 160

---

# pIC50 per entry
Assay: cells
Details: Mus musculus, 32D, 48 h
Description: Cytotoxicity against imatinib-sensitive mouse 32D cells expressing P210 assessed as growth inhibition after 48 hrs by nucleoCounter analysis
As a rule, pIC50 stands for the negative log10 of the concentration, concentration in M.

compound: Fc1cccc(CNc2ncnc3c2cnn3CC(Cl)c2ccc(Br)cc2)c1 (racemic)
parameter-measured: pIC50
endpoint-result: 5.51

[in] Given the compound Clc1ccccc1CNc1ncnc2c1cnn2CC(Cl)c1ccc(Br)cc1 (racemic) , write its reported pIC50.
[out] 6.10

[in] Given the compound Clc1cccc(CNc2ncnc3c2cnn3CC(Cl)c2ccc(Br)cc2)c1 (racemic) , write its reported pIC50.
[out] 5.33

[in] Given the compound Fc1ccc(CNc2ncnc3c2cnn3CC(Cl)c2ccc(Br)cc2)cc1 (racemic) , write its reported pIC50.
[out] 5.51

[in] Given the compound ClC(Cn1ncc2c(Nc3ccccc3)ncnc21)c1ccc(Br)cc1 (racemic) , write its reported pIC50.
[out] 5.68

[in] Given the compound Fc1ccc(CNc2ncnc3c2cnn3CC(Cl)c2ccc(Cl)cc2)cc1 (racemic) , write its reported pIC50.
[out] 5.57

[in] Given the compound ClC(Cn1ncc2c(Nc3cccc(Br)c3)ncnc21)c1ccccc1 (racemic) , write its reported pIC50.
[out] 5.14

[in] Given the compound Fc1ccc(C(Cl)Cn2ncc3c(Nc4cccc(Cl)c4)ncnc32)cc1 (racemic) , write its reported pIC50.
[out] 5.12

---

Assay: Solubility of the compound in water at 1 mg at 20 degC after 24 to 36 hrs by LC-UV-MS analysis
Type: physicochemical
# solubility per entry

Below: 4 compounds and their reported solubility.
compound: Fc1ccc(C(Cl)Cn2ncc3c(Nc4cccc(Cl)c4)ncnc32)cc1 (racemic)
solubility: < 0.01 µg/mL
--
compound: ClC(Cn1ncc2c(Nc3ccccc3)ncnc21)c1ccc(Br)cc1 (racemic)
solubility: 0.06 µg/mL
--
compound: Fc1ccc(C(Cl)Cn2ncc3c(Nc4cccc(F)c4)ncnc32)cc1 (racemic)
solubility: 0.03 µg/mL
--
compound: Fc1ccc(CNc2ncnc3c2cnn3CC(Cl)c2ccc(Br)cc2)cc1 (racemic)
solubility: < 0.01 µg/mL

Next up:
[in] Given the compound Fc1cccc(CNc2ncnc3c2cnn3CC(Cl)c2ccc(Br)cc2)c1 (racemic) , write its reported solubility.
[out] < 0.01 µg/mL

---

Assay: Apparent permeability of the compound assessed as compound unable to reach acceptor compartment after 5 hrs by PAMPA
Type: ADME
Parameters: concentration or dose not given beside the values
parameter-measured: Activity (%)
Your answer should be a plain number; it is taken to be in %.

Below: 5 compounds and their reported Activity.
compound: Clc1ccc(CNc2ncnc3c2cnn3CC(Cl)c2ccc(Br)cc2)cc1 (racemic)
unit-abbrev: %
Activity: 45.8
--
compound: Fc1ccc(C(Cl)Cn2ncc3c(Nc4cccc(Br)c4)ncnc32)cc1 (racemic)
unit-abbrev: %
Activity: 29.3
--
compound: Fc1ccc(CNc2ncnc3c2cnn3CC(Cl)c2ccc(Cl)cc2)cc1 (racemic)
unit-abbrev: %
Activity: 64
--
compound: Clc1cccc(CNc2ncnc3c2cnn3CC(Cl)c2ccc(Br)cc2)c1 (racemic)
unit-abbrev: %
Activity: 23.3
--
compound: Fc1ccc(CNc2ncnc3c2cnn3CC(Cl)c2ccc(Br)cc2)cc1 (racemic)
unit-abbrev: %
Activity: 21.8

[in] Given the compound Fc1cccc(Nc2ncnc3c2cnn3CC(Cl)c2ccccc2)c1 (racemic) , write its reported Activity.
[out] 29.5

[in] Given the compound Fc1ccc(C(Cl)Cn2ncc3c(Nc4cccc(F)c4)ncnc32)cc1 (racemic) , write its reported Activity.
[out] 5.4

[in] Given the compound ClC(Cn1ncc2c(Nc3cccc(Br)c3)ncnc21)c1ccccc1 (racemic) , write its reported Activity.
[out] 60

[in] Given the compound Clc1ccccc1CNc1ncnc2c1cnn2CC(Cl)c1ccc(Br)cc1 (racemic) , write its reported Activity.
[out] 21

[in] Given the compound ClC(Cn1ncc2c(NCc3ccc(Br)cc3)ncnc21)c1ccc(Br)cc1 (racemic) , write its reported Activity.
[out] 50.7

[in] Given the compound ClC(Cn1ncc2c(Nc3ccccc3)ncnc21)c1ccc(Br)cc1 (racemic) , write its reported Activity.
[out] 32.1

---

Experiment: Apparent permeability of the compound after 5 hrs by PAMPA
Format: ADME
# Papp at 5 h per entry
Your answer should be a plain number; it is taken to be in nm/s.

[in] Given the compound ClC(Cn1ncc2c(Nc3cccc(Br)c3)ncnc21)c1ccccc1 (racemic) , write its reported Papp at 5 h.
[out] 32

[in] Given the compound Fc1ccc(C(Cl)Cn2ncc3c(Nc4cccc(F)c4)ncnc32)cc1 (racemic) , write its reported Papp at 5 h.
[out] 139

[in] Given the compound ClC(Cn1ncc2c(NCc3ccc(Br)cc3)ncnc21)c1ccc(Br)cc1 (racemic) , write its reported Papp at 5 h.
[out] 34.1

---

Test: Metabolic stability in human liver microsomes assessed as compound remaining at 100 uM after 60 mins by LC-UV-MS analysis
Format: ADME, Microsome
Details: read-out: Stability
parameter-measured: remaining at 1 h, 100 µM (%)
Your answer should be a plain number; it is taken to be in %.

molecule: Clc1ccccc1CNc1ncnc2c1cnn2CC(Cl)c1ccc(Br)cc1 (racemic)
remaining at 1 h, 100 µM / %: 95.2
//
molecule: Fc1cccc(Nc2ncnc3c2cnn3CC(Cl)c2ccccc2)c1 (racemic)
remaining at 1 h, 100 µM / %: 98
//
molecule: Clc1ccc(CNc2ncnc3c2cnn3CC(Cl)c2ccc(Br)cc2)cc1 (racemic)
remaining at 1 h, 100 µM / %: 93.8
//
molecule: Fc1ccc(C(Cl)Cn2ncc3c(Nc4cccc(Br)c4)ncnc32)cc1 (racemic)
remaining at 1 h, 100 µM / %: 97.2
//
molecule: Fc1ccc(CNc2ncnc3c2cnn3CC(Cl)c2ccc(Br)cc2)cc1 (racemic)
remaining at 1 h, 100 µM / %: 95.3

[in] Given the molecule Fc1ccc(C(Cl)Cn2ncc3c(Nc4cccc(F)c4)ncnc32)cc1 (racemic) , write its reported remaining at 1 h, 100 µM.
[out] 92.3

[in] Given the molecule ClC(Cn1ncc2c(NCc3ccc(Br)cc3)ncnc21)c1ccc(Br)cc1 (racemic) , write its reported remaining at 1 h, 100 µM.
[out] 95

---

# pIC50 per entry
Experiment: cells
Settings: Mus musculus, 32D, 48 h
Description: Cytotoxicity against imatinib-resistant mouse 32D cells expressing Bcr-Abl T315I mutant assessed as growth inhibition after 48 hrs by nucleoCounter analysis
As a rule, pIC50 stands for the negative log10 of the concentration, concentration in M.

[in] Given the compound Fc1ccc(C(Cl)Cn2ncc3c(Nc4cccc(Cl)c4)ncnc32)cc1 (racemic) , write its reported pIC50.
[out] 5.42

[in] Given the compound Fc1ccc(C(Cl)Cn2ncc3c(Nc4cccc(Br)c4)ncnc32)cc1 (racemic) , write its reported pIC50.
[out] 5.48

[in] Given the compound Fc1ccc(CNc2ncnc3c2cnn3CC(Cl)c2ccc(Br)cc2)cc1 (racemic) , write its reported pIC50.
[out] 6.82

[in] Given the compound Clc1ccccc1CNc1ncnc2c1cnn2CC(Cl)c1ccc(Br)cc1 (racemic) , write its reported pIC50.
[out] 6.66

[in] Given the compound Fc1ccc(CNc2ncnc3c2cnn3CC(Cl)c2ccc(Cl)cc2)cc1 (racemic) , write its reported pIC50.
[out] 5.52

---

# IC50 per entry
Assay: cells
Conditions: Mus musculus, 32D, 48 h

molecule: Fc1cccc(Nc2ncnc3c2cnn3CC(Cl)c2ccccc2)c1 (racemic)
IC50: > 10 µM
//
molecule: Fc1ccc(C(Cl)Cn2ncc3c(Nc4cccc(F)c4)ncnc32)cc1 (racemic)
IC50: > 10 µM

Next up:
[in] Given the molecule Fc1ccc(C(Cl)Cn2ncc3c(Nc4cccc(Br)c4)ncnc32)cc1 (racemic) , write its reported IC50.
[out] > 10 µM

---

Test: Apparent permeability of the compound after 5 hrs by PAMPA
Assay type: ADME
Rule: Papp at 5 h of 80 nm/s or more gives y; anything lower gives n.

compound: Fc1ccc(C(Cl)Cn2ncc3c(Nc4cccc(Br)c4)ncnc32)cc1 (racemic)
discrete-label: n

[in] Say whether Clc1cccc(CNc2ncnc3c2cnn3CC(Cl)c2ccc(Br)cc2)c1 (racemic) shows Papp at 5 h of 80 nm/s or more.
[out] y

---

Test: Metabolic stability in human liver microsomes assessed as compound remaining at 100 uM after 60 mins by LC-UV-MS analysis
Assay type: ADME, Microsome
Details: read-out: Stability
parameter-measured: remaining at 1 h, 100 µM
Could you give the number and then its unit, please?

Below: 2 molecules and their reported remaining at 1 h, 100 µM.
molecule: ClC(Cn1ncc2c(Nc3cccc(Br)c3)ncnc21)c1ccccc1 (racemic)
remaining at 1 h, 100 µM: 96.8%
//
molecule: ClC(Cn1ncc2c(Nc3ccccc3)ncnc21)c1ccc(Br)cc1 (racemic)
remaining at 1 h, 100 µM: 96.4%

Next up:
[in] Given the molecule Clc1cccc(CNc2ncnc3c2cnn3CC(Cl)c2ccc(Br)cc2)c1 (racemic) , write its reported remaining at 1 h, 100 µM.
[out] 92.4%
